READOUT TYPE: melting point (°C)

Here are 5 compounds together with their reported answers.
[
  {
    "CPD SMILES": "C=CC(=O)OCCCCCCCC(C)C",
    "READOUT TYPE": "melting point",
    "DISPLAY UNIT": "°C",
    "NUMERIC RESULT": -100
  },
  {
    "CPD SMILES": "COC(=O)c1sc2c(c1N)CSc1ccc(Cl)cc1-2",
    "READOUT TYPE": "melting point",
    "DISPLAY UNIT": "°C",
    "NUMERIC RESULT": 120
  },
  {
    "CPD SMILES": "O=[N+]([O-])c1c(O)cc(O)cc1O",
    "READOUT TYPE": "melting point",
    "DISPLAY UNIT": "°C",
    "NUMERIC RESULT": 189
  },
  {
    "CPD SMILES": "O=C(O)CCc1ccc2c(c1)CCC(=O)N2",
    "READOUT TYPE": "melting point",
    "DISPLAY UNIT": "°C",
    "NUMERIC RESULT": 234
  },
  {
    "CPD SMILES": "c1ccc2nc(-c3cc(-c4cnc5ccccc5n4)cc(-c4cnc5ccccc5n4)c3)cnc2c1",
    "READOUT TYPE": "melting point",
    "DISPLAY UNIT": "°C",
    "NUMERIC RESULT": 302
  }
]

P. Cc1nn(C)c2ncnc(N)c12
Q. Cc1ccc2[nH]c(C)cc2c1
input: Lower value of melting point belongs to which: P or Q ? Reply with the label of the item you choose.
output: Q

a. COc1ccc(C(=O)CCC(=O)O)cc1F
b. COc1cc(C(=O)c2cccc(Br)c2)c([N+](=O)[O-])cc1OC
c. Cc1nc(N)nc(O)n1
input: I would appreciate it if you could sort these 3 compounds by melting point, starting from the smallest number. Respond with an ordered listing of the labels, as requested.
output: b, a, c
(b: 119 °C, a: 171 °C, c: 300 °C)

====

READOUT TYPE: melting point (°C)

Here are 5 compounds together with their reported answers.
[
  {
    "COMPOUND": "O=C1CCc2cccc3c2N1CC3",
    "DISPLAY UNIT": "°C",
    "melting point": 112
  },
  {
    "COMPOUND": "CN1CCC23CCCCC2C1Cc1ccc(O)cc13 (stereo not drawn)",
    "DISPLAY UNIT": "°C",
    "melting point": 198
  },
  {
    "COMPOUND": "CC1=Nc2ccccc2C1(C)C#N (stereo not drawn)",
    "DISPLAY UNIT": "°C",
    "melting point": 73
  },
  {
    "COMPOUND": "CN(C)c1ccc(C=Cc2ccc3ccccc3n2)cc1",
    "DISPLAY UNIT": "°C",
    "melting point": 184
  },
  {
    "COMPOUND": "CN(C)P(=O)(OP(=O)(N(C)C)N(C)C)N(C)C",
    "DISPLAY UNIT": "°C",
    "melting point": 17
  }
]

I. CCOC(=O)CN(C(=O)CCl)c1c(CC)cccc1CC
II. N#Cc1c2ccccc2c(C#N)c2ccccc12
input: Lower value of melting point belongs to which: I or II ? Reply with the label of the item you choose.
output: I

====

READOUT TYPE: melting point (°C)

Here are 3 compounds together with their reported answers.
[
  {
    "COMPOUND": "CC1(C)SC2C(NC(=O)COc3ccccc3)C(=O)N2C1C(=O)O (centres undefined)",
    "DISPLAY UNIT": "°C",
    "NUMERIC RESULT": 124
  },
  {
    "COMPOUND": "Clc1ccnc(Cl)n1",
    "DISPLAY UNIT": "°C",
    "NUMERIC RESULT": 60
  },
  {
    "COMPOUND": "CC(O)(c1ccccc1)c1ccccc1",
    "DISPLAY UNIT": "°C",
    "NUMERIC RESULT": 80
  }
]

P. C=CC(C)Cl (centres undefined)
Q. Nc1ccc(Br)cn1
input: Lower value of melting point belongs to which: P or Q ? Reply with the label of the item you choose.
output: P

1. COc1ccc(Nc2cccc(C(F)(F)F)c2)cc1
2. CCCCCCCCCCCCCCN
input: Would you let me know which has the greater melting point value, 1 or 2 ? Reply with the label of the item you choose.
output: 2
(2: 83.1 °C, 1: 58 °C)

====

READOUT TYPE: melting point (°C)

Here are 3 molecules together with their reported answers.
[
  {
    "MOLECULE": "Cc1c(C)n2c(CBr)c(C)c(=O)n2c1=O",
    "melting point [°C]": 152
  },
  {
    "MOLECULE": "COc1ccc2[nH]cc(CCN(C(C)C)C(C)C)c2c1",
    "melting point [°C]": 181
  },
  {
    "MOLECULE": "O=C(O)Cc1csc2ccccc12",
    "melting point [°C]": 110
  }
]

I. O=C(O)Cc1cc(I)c(Oc2ccc(O)c(I)c2)c(I)c1
II. OC1CCCC1C1CCCC1 (stereo unspecified)
III. O=C(c1ccccc1)N1CCCCC1
IV. C/C(=N\Nc1ccc([N+](=O)[O-])cc1)c1nc2c(ccc3ccccc32)nc1C
input: Please rank these molecules by melting point in descending order. Respond with an ordered listing of the labels, as requested.
output: IV, I, III, II
(IV: 271 °C, I: 182 °C, III: 49 °C, II: 20 °C)

P. O=C(O)COCCN1C(=O)c2ccccc2C1=O
Q. CCOc1ccc(-c2nnc3n2NC(c2ccccc2OC)S3)cc1 (stereo unspecified)
input: Would you let me know which has the greater melting point value, P or Q ? Reply with the label of the item you choose.
output: Q
(Q: 194 °C, P: 128 °C)

1. NC(=O)c1c(F)ccc(Cl)c1F
2. CC12CCC(=O)C=C1CCC1C2C(O)CC2(C)C1CCC2(O)C(=O)CO (stereo unspecified)
input: Lower value of melting point belongs to which: 1 or 2 ? Reply with the label of the item you choose.
output: 1
(1: 135 °C, 2: 223 °C)

====

READOUT TYPE: melting point (°C)

Here are 3 compounds together with their reported answers.
[
  {
    "COMPOUND": "CCOc1cccc(C=O)c1O",
    "melting point (°C)": 67
  },
  {
    "COMPOUND": "O=C(O)[C@@H]1CCCC[C@H]1C(=O)O (relative stereo)",
    "melting point (°C)": 220
  },
  {
    "COMPOUND": "CCOC(=O)N1COCc2c1ccc1cc3ccc4c(c3nc21)COCN4C(=O)OCC",
    "melting point (°C)": 195
  }
]

1. O=C(COc1ccc(Cl)cc1)Nc1nc2ccc(Br)cc2s1
2. COc1cc(/C=N/c2ccccc2)ccc1O
3. N#CCc1ccc(Cl)c(Cl)c1
4. C=CCOC(=O)OCCOCCOC(=O)OCC=C
input: Please rank these compounds by melting point in descending order. Respond with an ordered listing of the labels, as requested.
output: 1, 2, 3, 4

====

READOUT TYPE: melting point (°C)

Here are 5 compounds together with their reported answers.
[
  {
    "COMPOUND": "COS(=O)(=O)c1cc([N+](=O)[O-])ccc1C=Cc1ccc([N+](=O)[O-])cc1S(=O)(=O)OC",
    "DISPLAY UNIT": "°C",
    "melting point": 228
  },
  {
    "COMPOUND": "COc1ccc(CC(=O)O)c(OC)c1",
    "DISPLAY UNIT": "°C",
    "melting point": 110
  },
  {
    "COMPOUND": "O=C(O)C1c2ccccc2-c2ccccc21",
    "DISPLAY UNIT": "°C",
    "melting point": 229
  },
  {
    "COMPOUND": "Cc1ccsc1C",
    "DISPLAY UNIT": "°C",
    "melting point": -49
  },
  {
    "COMPOUND": "O=C(O)CCCOc1ccc(Cl)cc1Cl",
    "DISPLAY UNIT": "°C",
    "melting point": 118
  }
]

I. CCOc1cc(Cl)c(N)c(Cl)c1
II. Cc1nc(-c2ccccc2)sc1CN
III. CCOC(=O)c1cc(-c2ccccc2)n(-c2ccccc2)c1C
IV. CCCCOC(=O)C1=C(C)NC(=O)NC1c1ccc2c(c1)OCO2 (stereo unspecified)
input: Please rank these compounds by melting point in descending order. Respond with an ordered listing of the labels, as requested.
output: II, IV, III, I
(II: 230 °C, IV: 143 °C, III: 97 °C, I: 46 °C)
